Attribution: patent USRE39061E1

Tested on: HL601/MX2
Assay type: cell-based
Procedure: Human cancer cell lines were used for in vitro drug testing. […] Cells were added at the appropriate inoculation densities in 96-well micro titer plates and preincubated for 24 hours in a moist atmosphere of 5% CO2 in air at 37 °C, to allow stabilization prior to addition of the test compounds. […] The activity for each compound on each cell line was determined by the MTT method with modifications. […]

molecule	CC50 / µM
CC(=O)OCC=C(C)CC[C@@H]1[C@@]2(C)CCCC(C)(C)[C@@H]2CC[C@@]1(C)O [Label-13-ene-8, 15-yl acetate, labd-13-ene,8α-ol,15-yl acetate]	101
CC(=CCO)CC[C@@H]1[C@@]2(C)CCCC(C)(C)[C@@H]2CC[C@@]1(C)O [Label-13-ene-8, 15 diol, labd-13-ene-8α,15-diol]	102
C=C[C@](C)(O)CC[C@@H]1[C@@]2(C)CCCC(C)(C)[C@@H]2CC[C@@]1(C)O [Label-14-ene-8, 13 diol, labd-14-ene-8,13-diol]	76.8
